- System: E. coli (1956)
- Test Protocol: MIC determination by microplate dilution, E. coli animal strain
- Assay type: cell-based, Escherichia coli
- Measurement Conditions: Escherichia coli, Gram-negative, Mueller-Hinton medium, 24 h, 37° C.
Listing: MIC of selected compounds
Just the number please, in µg/mL, no unit attached.

Below: 5 compounds and their reported MIC.
COC(=O)CC[C@@H](C)[C@H]1CCC2C3CCC4C[C@@H](NCCCN(C)CCCN)CC[C@]4(C)C3CC[C@@]21C (stereo partly drawn); 6
CC(C)OC(=O)CC[C@@H](C)[C@H]1CCC2C3C(C[C@H](O)[C@@]21C)[C@@]1(C)CC[C@H](NCCN(CCN)CCN)CC1C[C@H]3O (stereo partly drawn); 56
CC(C)OC(=O)CC[C@@H](C)[C@H]1CCC2C3CCC4C[C@@H](NCCN(CCN)CCN)CC[C@]4(C)C3C[C@H](O)[C@@]21C (stereo partly drawn); 28
COC(=O)CC[C@@H](C)[C@H]1CCC2C3CCC4C[C@@H](NCCCN(C)CCCN)CC[C@]4(C)C3C[C@H](O)[C@@]21C (stereo partly drawn); 13
COC(=O)CC[C@@H](C)[C@H]1CCC2C3C(CC[C@@]21C)[C@@]1(C)CC[C@H](NCCCN(C)CCCN)CC1C[C@H]3O (stereo partly drawn); 13

Now for the compound whose MIC we want.
Q) Reported MIC for E. coli (1956), given CC(C)OC(=O)CC[C@@H](C)[C@H]1CCC2C3CCC4C[C@@H](NCCCN(CCCN)CCCN)CC[C@]4(C)C3CC[C@@]21C (stereo partly drawn) ?
A) 60
